target_entity: T1, AAV5 (adeno-associated virus 5)
T1 construct: also called adeno-associated virus serotype 5
protocol: SPR, AAV amine-coupled to CM5 chip;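 further: nanobodies flowed as analyte at seven concentrations spanning 1–100 nM over immobilized AAV (500–800 RU), kinetic constants derived by fitting the binding curves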
assay_readout: Kd

A4-091 (VHH) VHH: VQLQESGGGLVQPGGSLRLSCAASGSRFSINTMGWYRQRAGKQRELVATVTRDGSTTYANSVKGRFTISRDNAKNTVYLQMNSLRPEDTAVYYCHVDELRQSTWTTSNLWGQGTQVTVSS: 4.49 nM
A4-066 (VHH) VHH: VQLQESGGGLVQTGGSLRLSCAASGRAFSLNTMGWYRQAPGKQRELVATVTRGGSTNYAGSVKGRFTISRDNAKNTVYLQMNSLRPEDTAVYYCHVDEVRESSWTTSNLWGQGTQVTVSS: 20.7 nM
A4-068 (VHH) VHH: VQLQESGGGLVQTGGSLRLSCAASGRAFSLNTMGWYRQAPGKWRELVATVTRGGSTNYAGSVKGRFTISRDNAKNTVYLQMNNLRPEDTAVYYCHVDEVRESSWTTSNLWGQGTQVTVSS: 45.3 nM

What value of measured Kd is listed for A4-069 (VHH) VHH: VQLQESGGGLVQPGGSLRLSCAASGSIFTINSMGWYRQAPGKWRELVATVTRGGNTNYANSVKGRFTISRDNAKNTVYLQMNTLRPEDTAVYYCHLDEVRDSSWTTSNLWGQGTQVTVSS ? 3.58 nM
